// data source = patent EP4759807A1

- Tested Target: UniProt Q9NWZ3
- Sequence (Q9NWZ3 1-460): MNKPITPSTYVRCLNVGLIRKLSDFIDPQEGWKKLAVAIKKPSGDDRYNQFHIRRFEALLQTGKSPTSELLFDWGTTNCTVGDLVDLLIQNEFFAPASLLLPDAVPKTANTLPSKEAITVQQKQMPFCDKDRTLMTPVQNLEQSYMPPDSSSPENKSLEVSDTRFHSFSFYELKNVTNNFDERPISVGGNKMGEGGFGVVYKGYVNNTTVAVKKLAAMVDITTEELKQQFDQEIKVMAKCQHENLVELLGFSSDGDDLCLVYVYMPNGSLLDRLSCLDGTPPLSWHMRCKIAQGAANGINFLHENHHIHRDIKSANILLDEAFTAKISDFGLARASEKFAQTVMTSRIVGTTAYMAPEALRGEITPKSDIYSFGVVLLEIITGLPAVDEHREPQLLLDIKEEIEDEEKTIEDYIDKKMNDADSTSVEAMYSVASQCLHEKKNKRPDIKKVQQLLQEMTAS
- Experiment Summary: WB detection of proteolysis (Western Blot, THP-1 cells)
- Assay type: cell-based
- Condition Label: Western Blot, THP-1 cells, 24 h; read-out: DC50
Quantity: DC50

INSERT INTO assay_data (molecule, tested_target, result) VALUES
  ('C[C@@H]1CN(C2CCN(c3cccc4c3n(C)c(=O)n4C3CCC(=O)NC3=O)CC2)CCN1C[C@H]1CC[C@H](n2cc(-n3cc(-c4cnn5ccc(N6CCC[C@H](O)C6)nc45)nn3)c(C(F)F)n2)CC1 (some centres unmarked) [Example 292]', 'UniProt Q9NWZ3', '< 0.01 µM');

Consider the record given below.
For Cn1c(=O)n(C2CCC(=O)NC2=O)c2cccc(N3CCC(N4CCN(C[C@H]5CC[C@H](n6cc(-n7cc(-c8cnn9ccc(N%10CCC[C@H](O)C%10)nc89)nn7)c(C(F)F)n6)CC5)CC4)CC3)c21 (some centres unmarked) [Example 146] , what is its reported DC50?
< 0.01 µM

----------
- Tested Target: IRAK4 (Homo sapiens, UniProt Q9NWZ3)
- Experiment Summary: Hibit fluorescence detection of proteolysis (IRAK4-HiBiT in HEK293T cells)
- Assay type: cell-based
- Set-up: host or cells: HEK293T (ATCC)
- Condition Label: HEK-293T; IRAK4-HiBiT, HEK293T cells, 24 h; read-out: Dmax
Quantity: Dmax

INSERT INTO results (compound, quantity, result) VALUES
  ('Cc1c(/C=C2\C(=O)Nc3ccc(S(=O)(=O)Nc4ccc(F)cc4)cc32)[nH]c2cc(N3CCN(CC4CCN(c5ccc(C(=O)NC6CCC(=O)NC6=O)c(F)c5)CC4)CC3)ccc12 (stereo not shown) [Example 22]', 'Dmax', '< 60%'),
  ('Cn1c(=O)n(C2CCC(=O)NC2=O)c2cccc(N3CCC(CN4CCC(n5cc(-n6cc(-c7ccc8cc(C(N)=O)cnn78)nn6)c(C(F)F)n5)CC4)CC3)c21 (stereo not shown) [Example 74]', 'Dmax', '70 to 80%'),
  ('NC(=O)c1cnn2c(-c3cn(-c4cn(C5CCN(CC6CCN(c7ccc8c(c7)C(=O)N(C7CCC(=O)NC7=O)C8=O)CC6)CC5)nc4C(F)F)nn3)ccc2c1 (stereo not shown) [Example 94]', 'Dmax', '< 60%');

For NC(=O)c1cnn2c(-c3cn(-c4cn(C5CCN(CC6CCN(c7ccc(C(=O)NC8CCC(=O)NC8=O)c(F)c7)CC6)CC5)nc4C(F)F)nn3)ccc2c1 (stereo not shown) [Example 95] , what is its reported Dmax?
< 60%

----------
Measured DC50 by item
- Tested Target: IRAK4 (Homo sapiens)
- Experiment Summary: Hibit fluorescence detection of proteolysis (IRAK4-HiBiT in HEK293T cells)
- Format: cell-based
- Set-up: host or cells: HEK293T (ATCC)
- Condition Label: IRAK4-HiBiT, HEK293T cells, 24 h
Counter-ions that a name gives are not always drawn.

Below, each entry is followed by its recorded DC50 result.
INSERT INTO assay_data (compound, quantity, result) VALUES
  ('Cn1c(=O)n(C2CCC(=O)NC2=O)c2cccc(C3CCN(C[C@H]4CC[C@H](n5cc(-n6cc(-c7cnn8ccc(N9CCOCC9)nc78)nn6)c(C(F)F)n5)CC4)CC3)c21 (some centres unmarked)', 'DC50', '< 0.5 nM'),
  ('Cn1c(=O)n(C2CCC(=O)NC2=O)c2cccc(C(=O)N3CCC(NC[C@H]4CC[C@H](n5cc(-n6cc(-c7cnn8ccc(N9CCOCC9)nc78)nn6)c(C(F)F)n5)CC4)CC3)c21 (some centres unmarked)', 'DC50', '> 5 nM'),
  ('Cn1c(=O)n(C2CCC(=O)NC2=O)c2cccc(N3CCN(C4CCN(C[C@H]5CC[C@H](n6cc(-n7cc(-n8ccc9cc(C(N)=O)cnc98)nn7)c(C(F)F)n6)CC5)CC4)CC3)c21 (some centres unmarked)', 'DC50', '< 0.5 nM'),
  ('Cn1c(=O)n(C2CCC(=O)NC2=O)c2cccc(CCC(=O)N3CCC4(CC3)CN(C[C@H]3CC[C@H](n5cc(-n6cc(-c7cnn8ccc(N9CCOCC9)nc78)nn6)c(C(F)F)n5)CC3)C4)c21 (some centres unmarked)', 'DC50', '< 0.5 nM');

Consider the record given below.
What value of DC50 on IRAK4 (Homo sapiens) does Cn1c(=O)n(C2CCC(=O)NC2=O)c2cccc(N3CCC4(CCN(C[C@H]5CC[C@H](n6cc(-n7cc(-c8cnn9ccc(N%10CCNCC%10)nc89)nn7)c(C(F)F)n6)CC5)CC4)C3)c21 (some centres unmarked) [Example 130, dihydrochloride] have?
0.5 to 1 nM

----------
- Tested Target: IRAK4 (Homo sapiens, UniProt Q9NWZ3)
- Sequence (Q9NWZ3 1-460): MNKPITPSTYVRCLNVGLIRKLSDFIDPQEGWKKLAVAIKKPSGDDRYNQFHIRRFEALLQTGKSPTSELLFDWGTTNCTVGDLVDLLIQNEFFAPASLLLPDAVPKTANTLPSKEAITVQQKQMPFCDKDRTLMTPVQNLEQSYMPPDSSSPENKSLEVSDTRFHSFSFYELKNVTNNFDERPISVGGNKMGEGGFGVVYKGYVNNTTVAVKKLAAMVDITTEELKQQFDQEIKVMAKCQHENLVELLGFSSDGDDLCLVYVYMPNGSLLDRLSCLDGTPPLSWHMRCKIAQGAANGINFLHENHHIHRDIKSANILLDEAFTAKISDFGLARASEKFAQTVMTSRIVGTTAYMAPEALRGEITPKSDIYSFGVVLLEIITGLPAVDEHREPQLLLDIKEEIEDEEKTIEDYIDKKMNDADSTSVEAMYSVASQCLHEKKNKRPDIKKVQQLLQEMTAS
- Experiment Summary: Hibit fluorescence detection of proteolysis (IRAK4-HiBiT in HEK293T cells)
- Format: cell-based
- Design: host or cells: HEK293T (ATCC)
- Condition Label: HEK-293T
Where a name gives a salt, the structure may show the parent alone.
Quantity: Dmax

INSERT INTO results (compound, result) VALUES
  ('CN(Cc1cccc2c1n(C)c(=O)n2C1CCC(=O)NC1=O)CC1CCN(C[C@H]2CC[C@H](n3cc(-n4cc(-c5cnn6ccc(N7CCOCC7)nc56)nn4)c(C(F)F)n3)CC2)CC1 (stereo partly drawn)', '60 to 70%'),
  ('NC(=O)c1cnn2c(-c3cn(-c4cn([C@H]5CC[C@H](CN6CC7(CC(CCNc8cccc9c8C(=O)N(C8CCC(=O)NC8=O)C9=O)C7)C6)CC5)nc4C(F)F)nn3)ccc2c1 (stereo partly drawn)', '< 60%'),
  ('Cn1c(=O)n(C2CCC(=O)NC2=O)c2cccc(N3CCC4(CCN(C[C@H]5CC[C@H](n6cc(-n7cc(-c8cnn9ccc(N%10CCS(=O)(=O)CC%10)nc89)nn7)c(C(F)F)n6)CC5)CC4)CC3)c21 (stereo partly drawn)', '> 80%'),
  ('Cn1c(=O)n(C2CCC(=O)NC2=O)c2cccc(N3CCC4(CCN(C[C@H]5CC[C@H](n6cc(-n7cc(-c8cnn9ccc(N%10CCC[C@H](N)C%10)nc89)nn7)c(C(F)F)n6)CC5)CC4)CC3)c21 (stereo partly drawn)', '> 80%'),
  ('Cn1c(=O)n(C2CCC(=O)NC2=O)c2cccc(N3CCN(C[C@H]4CC[C@H](n5cc(-n6cc(-c7cnn8ccc(N9CCOCC9)nc78)nn6)c(C(F)F)n5)CC4)CC3)c21 (stereo partly drawn)', '> 80%'),
  ('Cn1c(=O)n(C2CCC(=O)NC2=O)c2cccc(N3CCC4(CCN(C[C@H]5CC[C@H](n6cc(-n7cc(-c8cnn9ccc(NCC%10CC%10)nc89)nn7)c(C(F)F)n6)CC5)CC4)CC3)c21 (stereo partly drawn)', '> 80%'),
  ('Cn1c(=O)n(C2CCC(=O)NC2=O)c2cccc(N3CC4CCC(C3)N4C[C@H]3CC[C@H](n4cc(-n5cc(-c6cnn7ccc(N8CCOCC8)nc67)nn5)c(C(F)F)n4)CC3)c21 (stereo partly drawn)', '70 to 80%'),
  ('Cn1c(=O)n(C2CCC(=O)NC2=O)c2cccc(N3C4CCC3CN(C[C@H]3CC[C@H](n5cc(-n6cc(-c7ccc8cc(C(N)=O)cnn78)nn6)c(C(F)F)n5)CC3)C4)c21 (stereo partly drawn)', '> 80%');

What value of Dmax on IRAK4 (Homo sapiens, UniProt Q9NWZ3) does Cn1c(=O)n(C2CCC(=O)NC2=O)c2cccc(CN3CCC4(CC3)CC(NC[C@H]3CC[C@H](n5cc(-n6cc(-c7cnn8ccc(N9CCOCC9)nc78)nn6)c(C(F)F)n5)CC3)C4)c21 (stereo partly drawn) have?
> 80%

What value of Dmax on IRAK4 (Homo sapiens, UniProt Q9NWZ3) does Cn1c(=O)n(C2CCC(=O)NC2=O)c2cccc(N3CCC4(CCN(C[C@H]5CC[C@H](n6cc(-n7cc(-n8ccc9cc(C(N)=O)cnc98)nn7)c(C(F)F)n6)CC5)CC4)CC3)c21 (stereo partly drawn) have?
> 80%

What value of Dmax on IRAK4 (Homo sapiens, UniProt Q9NWZ3) does Cn1c(=O)n(C2CCC(=O)NC2=O)c2cccc(N3CCC4(CCN(C[C@H]5CC[C@H](n6cc(-n7cc(-c8cnn9ccc(N[C@@H]%10CCCC[C@@H]%10O)nc89)nn7)c(C(F)F)n6)CC5)CC4)C3)c21 (stereo partly drawn) have?
> 80%

What value of Dmax on IRAK4 (Homo sapiens, UniProt Q9NWZ3) does Cn1c(=O)n(C2CCC(=O)NC2=O)c2cccc(N3CCC(N4CCN(C[C@H]5CC[C@H](n6cc(-n7cc(-c8cnn9ccc(N%10CCC[C@H](N)C%10)nc89)nn7)c(C(F)F)n6)CC5)CC4)CC3)c21 (stereo partly drawn) [Example 150, hydrochloride] have?
> 80%

What value of Dmax on IRAK4 (Homo sapiens, UniProt Q9NWZ3) does Cn1c(=O)n(C2CCC(=O)NC2=O)c2cccc(N3CCC(N4CCN(C[C@H]5CC[C@H](n6cc(-n7cc(-c8cnn9ccc(N%10CCNCC%10)nc89)nn7)c(C(F)F)n6)CC5)CC4)CC3)c21 (stereo partly drawn) [Example 127, dihydrochloride] have?
> 80%

What value of Dmax on IRAK4 (Homo sapiens, UniProt Q9NWZ3) does Cn1c(=O)n(C2CCC(=O)NC2=O)c2cccc(N[C@H]3CC[C@H](N(C)C[C@H]4CC[C@H](n5cc(-n6cc(-c7cnn8ccc(N9CCC(C)(O)CC9)nc78)nn6)c(C(F)F)n5)CC4)CC3)c21 (stereo partly drawn) have?
70 to 80%

What value of Dmax on IRAK4 (Homo sapiens, UniProt Q9NWZ3) does Cn1c(=O)n(C2CCC(=O)NC2=O)c2cccc(N3CCC(N4CCN(C[C@H]5CC[C@H](n6cc(-n7cc(-c8cnn9ccc(N%10CCC(O)CC%10)nc89)nn7)c(C(F)F)n6)CC5)CC4)CC3)c21 (stereo partly drawn) have?
> 80%
